tested on: SR leukemia; test: NCI-60 one-dose screen, 48 h; conditions: 10 µM unless noted
About 83,000 compounds went through this panel and 20% of them were active in at least one assay; those are over-represented in the sample as a whole. The source made the active and inactive calls. How the source made its calls: active means growth percent below 10; inactive means the rest.
Classes used: active, inactive

> print(dat)
                                item.smiles  target.desc  discrete.label
1  CCc1cc2c(cc1N1CCC(N3CCOCC3)CC1)C(C)(C)c1[nH]c3cc(C#N)ccc3c1C2=O  SR leukemia          active
2  Cc1nc(NC(=O)N2CCC[C@H]2C(N)=O)sc1-c1ccnc(C(C)(C)C(F)(F)F)c1  SR leukemia        inactive
3  COc1cc(-c2nc(C(=O)NCC(=O)O)nn2-c2ccc(Cl)cc2)cc(OC)c1OC  SR leukemia        inactive
4  Oc1ccc(/C=N/Nc2nnc(N/N=C/c3ccc(O)cc3O)c3ccccc23)c(O)c1  SR leukemia          active
5  C#Cc1cccc(Nc2ncnc3cc(OCCOC)c(OCCOC)cc23)c1  SR leukemia        inactive
6  Cc1ccc(Nc2nccc(N(C)c3ccc4c(C)n(C)nc4c3)n2)cc1S(N)(=O)=O  SR leukemia        inactive
7  O=C(Nc1ccc(N=Nc2ccccc2)cc1)c1cccc2ccccc12  SR leukemia        inactive
8  CCN1CCN(Cc2ccc(Cc3ncc(F)c(-c4cc(F)c5nc(C)n(C(C)C)c5c4)n3)nc2)CC1  SR leukemia          active
9  Cc1cc(C(=O)Nc2cc(Oc3ccc4nc(NC(=O)C5CC5)cn4n3)ccc2C)n(C)n1  SR leukemia        inactive

---

Tested on: M14 melanoma
Test: NCI-60 one-dose screen, 48 h (100 = growth as untreated, 0 = no growth, -100 = all killed)
Conditions: 10 µM unless noted
Protocol: Growth inhibition of the M14 human tumor cell line is measured as a screen for anti-cancer activity. Cells are grown in 96 well plates and exposed to the test compound for 48 hours. Compounds are tested at a single concentration, which is 10^-5 M for most compounds. The reported endpoint is percent growth (GI% or GIPRCNT), where numbers from 0 - 100% represent growth inhibition, and numbers from -100% - 0 represent cell death. For example, a value of 40 represents 60% growth inhibition. […]
About 83,000 compounds went through this panel and 20% of them were active in at least one assay; those are over-represented in the sample as a whole.
Measurement Kind: growth (%)

> print(dat)
                                    compound  unit.spec  measured.number
 1  O=C(c1c(F)ccc(NS(=O)(=O)N2CC[C@@H](F)C2)c1F)c1c[nH]c2ncc(-c3cnc(C4CC4)nc3)cc12          %           -0.512
 2  Cc1cn(-c2cc(NC(=O)c3ccc(C)c(Nc4nccc(-c5cnccn5)n4)c3)cc(C(F)(F)F)c2)cn1          %             18.7
 3  O=C1NC(=O)[C@@H](c2cn3c4c(cccc24)CCC3)[C@@H]1c1c[nH]c2ccccc12          %             8.08
 4  N#CCNC(=O)c1ccc(-c2ccnc(Nc3ccc(N4CCOCC4)cc3)n2)cc1          %               44
 5  N#Cc1c(NC(=O)c2ccco2)[n+]([O-])c2cc(F)c(F)cc2[n+]1[O-]          %              112
 6  CCCCn1c(C)nc2ccc(Nc3nc(N4CCN(C)CC4)nc4nc[nH]c34)cc21          %              107
 7  COc1cc2c(cc1O)c(=O)n(CCN(C)C)c1c3cc4c(cc3ncc21)OCO4          %            -23.3
 8  CC/C(=C(/c1ccc(Cl)cc1)c1ccc(OCCN2CCCCC2)cc1)c1ccc(Cl)cc1          %             76.6
 9  O=C(Cc1ccc(-c2ccc(OCCN3CCOCC3)cc2)cn1)NCc1ccccc1          %            0.711
10  c1cc(OCCN2CCCCC2)cc(-c2n[nH]c3ccc(-c4ncn[nH]4)cc23)c1          %             22.9
11      COc1cc2nc(Nc3cccc(Cl)c3)nc(N)c2cc1OC          %             78.4
12  C=CC(=O)Nc1cc(Nc2nccc(-c3cn(C)c4ccccc34)n2)c(OC)cc1N(C)CCN(C)C          %            -79.4
13  CC[C@H](CO)Nc1nc(NCc2ccccc2)c2ncn(C(C)C)c2n1          %             71.8
14  O=C1C=CC2(NN=C(c3ccccc3)N2c2ccc(Cl)cc2)c2cccc(O)c21 (centres undefined)          %             28.9
15  CN(C)C[C@@H]1CCn2cc(c3ccccc32)C2=C(C(=O)NC2=O)c2cn(c3ccccc23)CCO1          %              3.4
16  CC(=O)O[C@]1(C)C[C@H](O)[C@]2(O)C=CO[C@H](O[C@@H]3O[C@H](CO)[C@@H](O)[C@H](O)[C@H]3O)[C@@H]21          %             98.6
17  COc1c(C(NC(=O)c2ccccc2)c2sccc2C)cc(Cl)c2cccnc12 (centres undefined)          %              103
18  C[C@@H]1COC(Nc2ccc3ncnc(Nc4ccc(OCc5nccs5)c(Cl)c4)c3c2)=N1          %             19.5
19  Cc1nc(NC(=O)N2CCC[C@H]2C(N)=O)sc1-c1ccnc(C(C)(C)C(F)(F)F)c1          %             41.4

---

test system: SK-MEL-5 melanoma; assay: NCI-60 one-dose screen, 48 h; conditions: 10 µM unless noted
This is part of a sample that, as a whole, favours compounds with a hit. Of some 83,000 tested, about 20% had one in any assay. Active and inactive are the calls of the source. The calls were made as follows: active = growth percent below 10; inactive = the rest.
Classes used: label 1 for active, label 0 for inactive

> print(dat)
                                   compound  discrete.label
1  Cc1c(CN2CCN(C(=O)[C@H](C)O)CC2)sc2c(N3CCOCC3)nc(-c3cnc(N)nc3)nc12         label 1
2  ClCc1ccc(-c2ccc(Cn3cnc4nc(Cl)nc(Cl)c43)cc2)cc1         label 1
3  COc1cc(OC)c(C(=O)/C=C/c2cc3c(cc2OCc2ccccc2)OC(C)(C)CC3)cc1CC=C(C)C         label 0
4  O=C(O)c1ccc2c(c1)nc(Nc1cccc(Cl)c1)c1ccncc12         label 1
5  Cc1cc(O)c2c(c1)C1OC(=O)CCCCCN1C1=C2C(=O)c2cccc(OC3CC(O)C(O)C(C)O3)c2C1=O (centres undefined)         label 0
6  C/C(=C(/c1ccc(Cl)cc1)c1ccc(OCCN2CCCC2)cc1)c1ccccc1         label 0
7  C=C1C(=O)O[C@H]2[C@H]1CC/C(C=Nc1c(N)cc(C(F)(F)F)cc1C(F)(F)F)=C\CC[C@@]1(C)O[C@@H]21         label 1
8  C[C@]12O[C@H](C[C@]1(O)CO)n1c3ccccc3c3c4c(c5c6ccccc6n2c5c31)CNC4=O         label 1
9  COc1ccc(C2CC(=O)c3c(O)c(OC)c(OC)c(OC)c3O2)cc1O (centres undefined)         label 0

---

test system: SF-295 CNS; experiment: NCI-60 one-dose screen, 48 h; details: 10 µM unless noted
This is part of a sample that, as a whole, favours compounds with a hit. Of some 83,000 tested, about 20% had one in any assay. The source made the active and inactive calls. The calls were made as follows: active = growth percent below 10; inactive = the rest.
Classes used: YES for active, NO for inactive

Molecule	Target Desc	Discrete Label
CC(C)CC(=O)Nc1n[nH]c2c1CN(C(=O)C1CCN(C)CC1)C2(C)C	SF-295 CNS	NO
COc1cnc2c(c1)C(=O)c1c-2n(CCCN2CCC(O)CC2)c(=O)c2cc(Cl)ccc12	SF-295 CNS	NO
Cc1ccc(-n2nc(C(C)(C)C)cc2NC(=O)NCc2cc(F)ccc2Oc2ccc3c(cnn3CCO)c2)cc1	SF-295 CNS	NO
COc1ccc(C(=O)c2cc(OC)c(OC)c(OC)c2)cc1/C=C/C(=O)c1ccc(F)cc1	SF-295 CNS	NO
CC(C)C1CCC(C)C(C2(C#N)C(N)=NC(N)=C2C#N)C1=O (stereo not drawn)	SF-295 CNS	NO
O=C(Nc1nc2cccc(-c3ccc(CN4CCS(=O)(=O)CC4)cc3)n2n1)C1CC1	SF-295 CNS	NO
COc1cc2ncnc(Nc3ccc(O)cc3)c2cc1OC	SF-295 CNS	NO
CCN(CC)CCCC(C)Nc1cc(-c2ccc(C(F)(F)F)cc2)c(C#N)c2nc3ccccc3n12 (stereo not drawn)	SF-295 CNS	YES
N#CC[C@H](C1CCCC1)n1cc(-c2ncnc3[nH]ccc23)cn1	SF-295 CNS	NO
CCOC(=O)c1sc(NC(=O)COc2ccc(/C=C3\Cc4ccc(Cl)cc4C3=O)cc2)nc1C	SF-295 CNS	NO
COc1cc(OC)c(/C=C/S(=O)(=O)Cc2ccc(OC)c(NCC(=O)O)c2)c(OC)c1	SF-295 CNS	NO
Cc1c(NC(=O)OC[C@@H]2COCCN2)cn2ncnc(Nc3ccc4c(cnn4Cc4cccc(F)c4)c3)c12	SF-295 CNS	NO
COc1ccc2c(OCc3nnc4ccc(-c5ccccc5)nn34)ccnc2c1	SF-295 CNS	NO
N#Cc1c(NC(=O)c2cccs2)[n+]([O-])c2ccc(F)cc2[n+]1[O-]	SF-295 CNS	NO
C[C@H]1Oc2cc(cnc2N)-c2c(nn(C)c2C#N)CN(C)C(=O)c2ccc(F)cc21	SF-295 CNS	NO
Cc1nn(-c2nc3ccccc3[nH]2)c2c1C(c1ccc(O)cc1)CC(=O)N2 (stereo not drawn)	SF-295 CNS	YES
O=C(O)c1ccc2c(c1)nc(Nc1cccc(Cl)c1)c1ccncc12	SF-295 CNS	YES
COC(=O)c1ccc2c(C(=Nc3ccc(N(C)C(=O)CN4CCN(C)CC4)cc3)c3ccccc3)c(O)[nH]c2c1	SF-295 CNS	NO
C/C(=C(/c1ccc(Cl)cc1)c1ccc(OCCN2CCCCC2)cc1)c1ccccc1	SF-295 CNS	NO
O=c1[nH]c(N2CCOCC2)nc2scc(-c3ccccc3)c12	SF-295 CNS	NO
CC[C@@H]1C(=O)N(C)c2cnc(Nc3ccc(C(=O)NC4CCC(N5CCN(CC6CC6)CC5)CC4)cc3OC)nc2N1C(C)C (stereo partly drawn)	SF-295 CNS	YES
COC(=O)[C@@H](OC)[C@@H]1Cc2cc3cc(OC4CC(OC5CC(O)C(O)C(C)O5)C(O)C(C)O4)c(C)c(O)c3c(O)c2C(=O)[C@H]1OC1CC(OC2CC(OC3CC(C)(O)C(O)C(C)O3)C(O)C(C)O2)C(O)C(C)O1 (stereo partly drawn)	SF-295 CNS	YES
O=[N+]([O-])c1cc(Br)cc2c1[nH]c1ccc(Br)cc12	SF-295 CNS	NO
Nc1cc(C(F)(F)F)c(-c2cc(N3CCOCC3)nc(N3CCOCC3)n2)cn1	SF-295 CNS	YES
N[C@@H]1CCCN(c2c(/C=C3\SC(=O)NC3=O)cccc2-c2ccccc2)C1	SF-295 CNS	YES
COc1ccc(/C(C)=C(\c2ccc(Cl)cc2)c2ccc(OCCN3CCCCCC3)cc2)cc1	SF-295 CNS	NO
FC(F)c1nc2ccccc2n1-c1nc(N2CCOCC2)nc(N2CCOCC2)n1	SF-295 CNS	YES
COc1cc2c(Oc3ccc4[nH]c(C)cc4c3F)ncnc2cc1OCCCN1CCCC1	SF-295 CNS	NO
COc1ccc(Nc2ncccc2NC(=O)c2cn(Cc3cccc(Oc4ccccc4)c3)nn2)cc1	SF-295 CNS	NO
Cc1cc2c(F)c(Oc3ncnn4cc(OC[C@@H](C)OC(=O)[C@H](C)N)c(C)c34)ccc2[nH]1	SF-295 CNS	NO
O=C1NC(=O)C(c2cnc3ccccn23)=C1c1cn2c3c(cc(F)cc13)CN(C(=O)N1CCCCC1)CC2	SF-295 CNS	NO
COc1cc2cc(NCc3ccc(Cl)cc3)nc(C)c2cc1OC	SF-295 CNS	NO
C#Cc1cccc(Nc2ncnc3cc4c(cc23)OCCOCCOCCO4)c1	SF-295 CNS	NO
Cc1sc2c(c1C)c(=O)nc1c(-c3nc(-c4ccccc4)cs3)n[nH]n12	SF-295 CNS	NO
Brc1ccc([I+]c2ccc(Br)cc2)cc1	SF-295 CNS	NO
CC(C)(C)OC(=O)N1CCC(O)[C@@H](O[Si](c2ccccc2)(c2ccccc2)C(C)(C)C)[C@H]1/C=C/c1ccccc1 (stereo partly drawn)	SF-295 CNS	NO
S=C(NCc1ccc2c(c1)OCO2)N1CCN(c2ncnc3c2oc2ccccc23)CC1	SF-295 CNS	NO
O=C1OCC2=C1C(c1cccc(F)c1)c1cc3c(cc1N2CCO)OCCO3 (stereo not drawn)	SF-295 CNS	YES
